Test system: NCI-H841 complex tumor spheroid viability
Assay: Anticancer human tumor NCI-H841 cell line growth inhibition;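 also: spheroids exposed to compounds for 7 days before readout; 100% = DMSO vehicle control wells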
Settings: second compound 0.003 µM; first compound 0.316 µM; active compounds read low
Method: Multicellular complex tumor spheroid response to DNA repair inhibitors in combination with DNA-damaging drugs This study explores the anticancer activities of DNA-damaging drugs and inhibitors of DNA damage repair, both as single agents and in combinations. […] Twenty-six patient-derived or established malignant cell lines were evaluated representing sarcoma, melanoma, small cell lung cancer (SCLC), non-small cell lung cancer (NSCLC), as well as bladder, ovarian and pancreatic cancers. […]
MEASUREMENT_NAME: viability, T/C (%)
Provide the reading as a plain figure in %.

Task: Answer with the recorded viability, T/C of Cc1cc(C)c(CNC(=O)c2cc(-c3ccc(CN4CCOCC4)cc3)cc3c2cnn3C2CCCC2)c(=O)[nH]1 + COc1cc2c(cc1O)CCNC21CSC2c3c(OC(C)=O)c(C)c4c(c3C(COC1=O)N1C(O)C3Cc5cc(C)c(OC)c(O)c5C(C21)N3C)OCO4 only.
Output: 0.11

Task: Answer with the recorded viability, T/C of COc1cc(C)[nH]c(=O)c1CN1CCc2c(Cl)cc(C(OC)C3COC3)c(Cl)c2C1=O (stereo unspecified) + COc1cc2c(cc1O)CCNC21CSC2c3c(OC(C)=O)c(C)c4c(c3C(COC1=O)N1C(O)C3Cc5cc(C)c(OC)c(O)c5C(C21)N3C)OCO4 only.
Output: 0.07

Task: Answer with the recorded viability, T/C of COc1ccc([C@@H](O)c2cc(-c3ncnc4cc(N5CCOCC5)ccc34)c(F)cc2Cl)nn1 + COc1cc2c(cc1O)CCNC21CSC2c3c(OC(C)=O)c(C)c4c(c3C(COC1=O)N1C(O)C3Cc5cc(C)c(OC)c(O)c5C(C21)N3C)OCO4 only.
Output: 0.14

Task: Answer with the recorded viability, T/C of CC1COCCN1c1cc(-c2ccnn2C)c2ccnc(-c3ccn[nH]3)c2n1 (stereo unspecified) + CC[C@@]1(O)C(=O)OCc2c1cc1n(c2=O)Cc2cc3c(CN(C)C)c(O)ccc3nc2-1 only.
Output: 1.1

Task: Answer with the recorded viability, T/C of Cc1cc(C)c(CNC(=O)c2cc(-c3ccc(CN4CCOCC4)cc3)cc3c2cnn3C2CCCC2)c(=O)[nH]1 + CC[C@@]1(O)C(=O)OCc2c1cc1n(c2=O)Cc2cc3c(CN(C)C)c(O)ccc3nc2-1 only.
Output: 91.9

Task: Answer with the recorded viability, T/C of CC(C)n1c(=O)n(C)c2cnc3cc(F)c(-c4ccc(OCCCN5CCCCC5)nc4)cc3c21 + CC[C@@]1(O)C(=O)OCc2c1cc1n(c2=O)Cc2cc3c(CN(C)C)c(O)ccc3nc2-1 only.
Output: 56.6

Task: Answer with the recorded viability, T/C of COc1cc(C)[nH]c(=O)c1CN1CCc2c(Cl)cc(C(OC)C3COC3)c(Cl)c2C1=O (stereo unspecified) + CC[C@@]1(O)C(=O)OCc2c1cc1n(c2=O)Cc2cc3c(CN(C)C)c(O)ccc3nc2-1 only.
Output: 62.9

Task: Answer with the recorded viability, T/C of COc1ccc([C@@H](O)c2cc(-c3ncnc4cc(N5CCOCC5)ccc34)c(F)cc2Cl)nn1 + CC[C@@]1(O)C(=O)OCc2c1cc1n(c2=O)Cc2cc3c(CN(C)C)c(O)ccc3nc2-1 only.
Output: 94.9

Task: Answer with the recorded viability, T/C of CC(C)n1c(=O)n(C)c2cnc3cc(F)c(-c4ccc(OCCCN5CCCCC5)nc4)cc3c21 + COc1cc2c(cc1O)CCNC21CSC2c3c(OC(C)=O)c(C)c4c(c3C(COC1=O)N1C(O)C3Cc5cc(C)c(OC)c(O)c5C(C21)N3C)OCO4 only.
Output: 0.11

Task: Answer with the recorded viability, T/C of CC1COCCN1c1cc(-c2ccnn2C)c2ccnc(-c3ccn[nH]3)c2n1 (stereo unspecified) + COc1cc2c(cc1O)CCNC21CSC2c3c(OC(C)=O)c(C)c4c(c3C(COC1=O)N1C(O)C3Cc5cc(C)c(OC)c(O)c5C(C21)N3C)OCO4 only.
Output: 0.11

Task: Answer with the recorded viability, T/C of [2H]c1nc(C)nc([2H])c1-c1cc(NC[C@@H](C)c2cccc3c(C(=O)NC)ccnc23)ncn1 + COc1cc2c(cc1O)CCNC21CSC2c3c(OC(C)=O)c(C)c4c(c3C(COC1=O)N1C(O)C3Cc5cc(C)c(OC)c(O)c5C(C21)N3C)OCO4 only.
Output: 0.1
